Target: Alpha1A (Homo sapiens, UniProt P35348)
Construct: NIMH PDSP
Sequence (P35348 whole entry): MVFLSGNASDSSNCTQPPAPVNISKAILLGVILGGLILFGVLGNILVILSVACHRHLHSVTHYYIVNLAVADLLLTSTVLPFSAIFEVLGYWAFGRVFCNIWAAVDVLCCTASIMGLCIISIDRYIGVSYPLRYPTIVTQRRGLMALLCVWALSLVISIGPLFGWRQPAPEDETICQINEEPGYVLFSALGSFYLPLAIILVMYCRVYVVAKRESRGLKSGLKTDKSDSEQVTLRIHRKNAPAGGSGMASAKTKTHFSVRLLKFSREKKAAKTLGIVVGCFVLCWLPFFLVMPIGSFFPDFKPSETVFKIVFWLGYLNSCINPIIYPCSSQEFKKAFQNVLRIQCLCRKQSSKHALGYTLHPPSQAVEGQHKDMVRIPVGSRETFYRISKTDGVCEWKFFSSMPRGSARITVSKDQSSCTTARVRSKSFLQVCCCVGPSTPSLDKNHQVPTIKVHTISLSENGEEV
Assay: NIMH PDSP radioligand binding, membranes
Conditions: read-out: Ki #1-#5 (individual assays)
Experimental: Radioligand binding assays with membrane preparations to determine binding affinity were carried out as outlined before[540] and by the National Institute of Mental Health’s Psychoactive Drug Screening Program (NIMH PDSP) (https://pdsp.unc.edu/), Contract # HHSN-271–2013–00017-C. The NIMH PDSP is Directed by B.L.R. at the University of North Carolina at Chapel Hill, Chapel Hill, NC, and Project Officer Jamie Driscoll at NIMH, Bethesda, MD.
pKi: −log10 of the molar value.
quantityMeasured: pKi

// query pKi value for entry c1ccc2c(c1)N=C(N1CCNCC1)c1ccccc1N2 [C21]
< 5.00
